Sourced from patent US8748388B2

Reported CC50 values follow for various molecules
- System: A549
- test.summary: SRB colorimetric cytotoxicity assay, A549
- Assay type: cell-based, human
- condition.info: A549, 48 hours exposure, read-out: LC50 (the source's name)
Bridge positions count the residues as written; N and C are the ends. Square brackets hold non-standard residues; d marks the D form. Peptide text beside a SMILES is read from it. I, II: the chains in the order shown. * marks the point of attachment. Quinaldoyl(3-OH) = O=C(c1nc2ccccc2cc1O)*; NMeC = CN[C@@H](CS)C(=O)O; dDap = NC[C@@H](N)C(=O)O

-- ask Which CC50 value belongs to CSC[C@H]1C(=O)NC[C@@H](NC(=O)c2nc3ccccc3cc2O)C(=O)NCC(=O)N(C)[C@H]2CSSC[C@@H](C(=O)N1C)N(C)C(=O)CNC(=O)[C@H](NC(=O)c1nc3ccccc3cc1O)CNC(=O)[C@H](CSC)N(C)C2=O [Azathiocoraline] (I: {Quinaldoyl(3-OH)}-[dDap]G[NMeC][NMeC](Me) / II: {Quinaldoyl(3-OH)}-[dDap]G[NMeC][NMeC](Me); amide I:1-II:C, I:C-II:1; disulfide I:3-II:3) ?
-- reply > 8900 nM

-- ask Which CC50 value belongs to CSC[C@H]1C(=O)N(C)C[C@@H](NC(=O)c2nc3ccccc3cc2O)C(=O)NCC(=O)N(C)[C@H]2CSSC[C@@H](C(=O)N1C)N(C)C(=O)CNC(=O)[C@H](NC(=O)c1nc3ccccc3cc1O)CN(C)C(=O)[C@H](CSC)N(C)C2=O ?
-- reply 165 nM

###

- Tested on: MDA-MB-231
- test.summary: SRB colorimetric cytotoxicity assay, MDA-MB-231
- Format: cell-based, human
- condition.info: MDA-MB-231, 48 hours exposure, read-out: LC50 (the source's name)
measured.attribute: CC50 (nM)
Kindly provide the numeric value in nM only, without the unit symbol.

-- ask Which CC50 value belongs to CSC[C@H]1C(=O)N(C)C[C@@H](NC(=O)c2nc3ccccc3cc2O)C(=O)NCC(=O)N(C)[C@H]2CSSC[C@@H](C(=O)N1C)N(C)C(=O)CNC(=O)[C@H](NC(=O)c1nc3ccccc3cc1O)CN(C)C(=O)[C@H](CSC)N(C)C2=O [Compound 2] ?
-- reply 373
